The measured values listed here are drawn from paper PMC4681580.

# TARGET: T1, rTAP1/TAP2a(E218M/Q262R/S265P/L266F) (rat) (UniProt P36370)
# T1 sequence (P36370 1-725 with E218M Q262R S265P L266F, looked up): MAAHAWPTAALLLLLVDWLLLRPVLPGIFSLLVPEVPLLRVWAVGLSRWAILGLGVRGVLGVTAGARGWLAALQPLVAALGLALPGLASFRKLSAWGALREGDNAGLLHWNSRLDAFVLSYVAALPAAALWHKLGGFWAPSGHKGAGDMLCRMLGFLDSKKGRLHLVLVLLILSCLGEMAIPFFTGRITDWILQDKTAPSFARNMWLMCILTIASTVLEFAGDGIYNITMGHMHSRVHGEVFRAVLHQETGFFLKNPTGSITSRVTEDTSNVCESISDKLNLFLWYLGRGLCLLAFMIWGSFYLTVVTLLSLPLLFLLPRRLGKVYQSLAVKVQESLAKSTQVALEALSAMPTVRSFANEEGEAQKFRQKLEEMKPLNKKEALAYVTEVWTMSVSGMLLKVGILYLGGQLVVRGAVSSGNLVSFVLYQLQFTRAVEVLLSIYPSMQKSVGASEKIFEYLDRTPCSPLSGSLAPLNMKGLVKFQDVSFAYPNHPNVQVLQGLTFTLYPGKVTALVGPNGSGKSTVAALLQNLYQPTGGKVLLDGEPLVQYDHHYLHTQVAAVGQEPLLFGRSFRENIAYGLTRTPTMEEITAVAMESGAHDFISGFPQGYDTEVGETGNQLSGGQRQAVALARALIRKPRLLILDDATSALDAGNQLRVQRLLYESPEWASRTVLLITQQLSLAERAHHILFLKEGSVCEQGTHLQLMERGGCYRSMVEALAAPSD
# T1 sequence (P36372 1-703 with E218M Q262R S265P L266F, looked up): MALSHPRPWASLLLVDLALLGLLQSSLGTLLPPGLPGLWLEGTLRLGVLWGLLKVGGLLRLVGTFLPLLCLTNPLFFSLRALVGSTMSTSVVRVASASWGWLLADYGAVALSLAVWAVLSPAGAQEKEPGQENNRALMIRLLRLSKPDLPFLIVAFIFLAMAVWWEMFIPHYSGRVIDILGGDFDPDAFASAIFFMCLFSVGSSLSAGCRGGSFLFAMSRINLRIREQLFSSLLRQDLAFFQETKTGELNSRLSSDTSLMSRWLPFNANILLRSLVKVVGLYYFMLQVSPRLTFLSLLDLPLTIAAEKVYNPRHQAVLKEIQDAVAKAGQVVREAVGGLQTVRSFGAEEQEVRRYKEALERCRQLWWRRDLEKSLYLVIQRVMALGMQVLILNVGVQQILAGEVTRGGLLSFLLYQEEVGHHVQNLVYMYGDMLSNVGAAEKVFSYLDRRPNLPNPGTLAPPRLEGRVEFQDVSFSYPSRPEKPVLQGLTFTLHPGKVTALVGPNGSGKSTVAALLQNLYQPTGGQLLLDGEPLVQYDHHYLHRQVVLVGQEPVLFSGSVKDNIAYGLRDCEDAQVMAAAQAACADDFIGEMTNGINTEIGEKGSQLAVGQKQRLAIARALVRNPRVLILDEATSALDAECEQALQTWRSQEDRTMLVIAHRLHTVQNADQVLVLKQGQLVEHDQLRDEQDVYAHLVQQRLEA
# ASSAY_COMMENT: cross-linking
pKd: −log10 of the molar value. Primed or numbered codes have the meaning given here. No end group written: not given here. FITC′ = fluorescein isothiocyanate
READOUT: pKd

[[record]]
binder = "TVDNK(FITC′)CAYV [TVDNK*CAYV (TC6V), FITC-labeled]"
experimental_result = 6.97

